method-summary: Solubility in simulated intestinal fluid at pH 2.3
Assay type: physicochemical
quantity-kind: solubility

For the compound Cl.Cl.NC(=O)c1cnc2n1CCc1ccccc1C21CCNCC1 [VAPITADINE DIHYDROCHLORIDE] , what solubility is on record? > 20 mg/mL

====

method-summary: Solubility in simulated gastric fluid at pH 1.1
Format: physicochemical
quantity-kind: solubility

Entry Cl.Cl.NC(=O)c1cnc2n1CCc1ccccc1C21CCNCC1 [VAPITADINE DIHYDROCHLORIDE] has what solubility? > 20 mg/mL

====

method-summary: Solubility in 0.1 M NaOH at pH 12.6
Assay type: physicochemical
quantity-kind: solubility (µg/mL)
A number alone suffices; assume µg/mL.

What value of measured solubility is listed for Cl.Cl.NC(=O)c1cnc2n1CCc1ccccc1C21CCNCC1 [VAPITADINE DIHYDROCHLORIDE] ? 3090
